# Recorded Conditions: Table 3
Counter-ions that a name gives are not always drawn.
Endpoint: pH
Answers are plain numbers.

Some entries whose results are on file:
# Compound, Endpoint, Recorded Result
records = [
    ("Cc1cccc[n+]1[O-] [#1140, 2-Methyl-pyridine N-oxide]", "pH", 6.2),
    ("CC(=O)N(CC(O)CO)c1c(I)c(C(=O)NCC(O)CO)c(I)c(C(=O)NCC(O)CO)c1I (centres unmarked) [Histodenz ™, reference compound]", "pH", 7.3),
    ("CCCC[n+]1ccccc1.[Cl-] [#0415, 1-Butyl-pyridinium chloride]", "pH", 5.5),
    ("CN(C)CCSC(=N)N [#0830, dihydrochloride]", "pH", 5.4),
    ("NC[C@H](O)[C@@H](O)[C@H](O)[C@H](O)CO [#0956, D-Glucamine, reference compound]", "pH", 12.3),
]

Lab note: each compound below needs its pH filled in.
1. Cc1ccc(C(=O)C(C)CN2CCCCC2)cc1.Cl (centres unmarked) [#1392, Tolperisone hydrochloride]
2. NCCN1CCNCC1 [#0338, N-(2-Aminoethyl) piperazine]
3. C[N+](C)(Cc1ccccc1)c1ccccc1.[Cl-] [#0450]
4. CNC(=S)NC [#0637, 1,3-Dimethyl-thiourea]
5. CCN(CC)C(=O)c1cccnc1 [#0609, N,N-Diethyl- nicotinamide]

## Result
[5.2, 12.4, 6.7, 6.8, 6.4]

Lab note: each compound below needs its pH filled in.
1. OCCNCc1ccccc1 [#0389, N-Benzyl- ethanolamine]
2. CNC(=O)c1cccnc1 [#1283, N-Methyl- nicotinamide]

## Result
10.9
10.7

Lab note: each compound below needs its pH filled in.
1. CCCC[n+]1ccccc1.[Br-] [#0315, 1-Butyl-pyridinium bromide]
2. Cc1cc[n+]([O-])cc1 [#1145, 4- Methylpyridine N-oxide]
3. CN(C)C(=O)c1ccccc1 [#0788, N,N- Dimethyl- benzamide]
4. [O-][n+]1ccccc1 [#1078, Pyridine N- oxide]
5. NCc1cccnc1 [#1102, 3-Picolylamine]

## Result
5.6
7.3
10.7
6.1
11.6

----------
# Recorded Conditions: Table 1
The label depends only on pH: 1 (yes) if it is at least 10, 0 (no) if it is smaller.

As a guide, the following entries are already answered.
# Compound, Category
records = [
    ("CCCCCCCCC(=O)[O-].[Na+] [#0865, Sodium nonanoate]", "0 (no)"),
    ("C[N+](C)(C)Cc1ccccc1.[OH-] [#0387, Benzyltrimethyl- ammonium Hydroxide]", "1 (yes)"),
    ("CC(C)(C)N(CCO)CCO", "1 (yes)"),
]

## Task hey, is pH for this one >= 10? CCCCCCCCCCCS(=O)(=O)[O-].[Na+] [#1419, Sodium 1-undecanesulfonate]
## Result 0 (no)

## Task hey, is pH for this one >= 10? CCCCCCCCCS(=O)(=O)[O-].[Na+] [#0870, Sodium 1-nonanesulfonate]
## Result 0 (no)

// data source = patent US20220381657A1
